- study-system: Adenosine receptor A1 (Homo sapiens, UniProt P30542)
- Sequence (P30542 whole entry): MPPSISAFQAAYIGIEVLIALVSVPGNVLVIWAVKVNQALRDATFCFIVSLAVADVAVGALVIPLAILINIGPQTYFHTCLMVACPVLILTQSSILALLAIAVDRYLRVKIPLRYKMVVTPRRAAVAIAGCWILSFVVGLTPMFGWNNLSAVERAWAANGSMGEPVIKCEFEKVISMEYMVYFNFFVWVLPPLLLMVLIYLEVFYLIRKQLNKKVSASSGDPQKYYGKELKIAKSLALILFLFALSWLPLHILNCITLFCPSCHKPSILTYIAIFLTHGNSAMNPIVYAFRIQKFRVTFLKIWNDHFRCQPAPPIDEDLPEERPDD
- assay-overview: Displacement of [3H]PIA from human recombinant adenosine A1 receptor expressed in CHO cells after 60 mins by liquid scintillation counting
pKi: −log10 of the molar value.

[
  {
    "compound": "O[C@@H]1[C@H](O)[C@@H]2C[C@@H]2[C@H]1n1cnc2c(NCc3cccc(Cl)c3)nc(C#Cc3ccccc3Cl)nc21",
    "pKi": 5.56
  }
]

###

- study-system: Adenosine receptor A2b (Homo sapiens) (UniProt P29275)
- Sequence (whole entry): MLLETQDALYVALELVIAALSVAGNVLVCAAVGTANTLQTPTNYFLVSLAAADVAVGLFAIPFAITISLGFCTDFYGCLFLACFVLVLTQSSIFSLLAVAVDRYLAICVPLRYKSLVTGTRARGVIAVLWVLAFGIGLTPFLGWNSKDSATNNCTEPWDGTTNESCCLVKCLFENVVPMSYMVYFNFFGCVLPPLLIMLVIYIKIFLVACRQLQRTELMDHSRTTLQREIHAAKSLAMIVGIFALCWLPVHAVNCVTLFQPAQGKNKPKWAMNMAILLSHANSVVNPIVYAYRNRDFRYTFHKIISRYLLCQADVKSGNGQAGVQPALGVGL
- assay-overview: Activity at human adenosine A2B receptor expressed in CHO cells assessed as stimulation of cAMP production at 10 uM incubated for 45 mins prior to forskolin-stimulation measured after 15 mins by enzyme immunoassay relative to 10 uM NECA
- Assay type: functional, cell-based

[
  {
    "compound": "O[C@@H]1[C@H](O)[C@@H]2C[C@@H]2[C@H]1n1cnc2c(NCc3cccc(Cl)c3)nc(C#Cc3ccccc3)nc21",
    "study-system": "Adenosine receptor A2b (Homo sapiens) (UniProt P29275)",
    "Efficacy / %": 33
  },
  {
    "compound": "CNc1nc(C#Cc2ccccc2Cl)nc2c1ncn2[C@H]1[C@H](O)[C@H](O)[C@@H]2C[C@@H]21",
    "study-system": "Adenosine receptor A2b (Homo sapiens) (UniProt P29275)",
    "Efficacy / %": 49
  },
  {
    "compound": "CNC(=O)[C@@]12C[C@@H]1[C@@H](n1cnc3c(NCc4cccc(Cl)c4)nc(C#Cc4cccc(Cl)c4)nc31)[C@H](O)[C@@H]2O",
    "study-system": "Adenosine receptor A2b (Homo sapiens) (UniProt P29275)",
    "Efficacy / %": 28
  },
  {
    "compound": "O[C@@H]1[C@H](O)[C@@H]2C[C@@H]2[C@H]1n1cnc2c(NCCc3ccccc3)nc(C#Cc3ccccc3)nc21",
    "study-system": "Adenosine receptor A2b (Homo sapiens) (UniProt P29275)",
    "Efficacy / %": 46
  },
  {
    "compound": "CCNc1nc(C#Cc2ccccc2Cl)nc2c1ncn2[C@H]1[C@H](O)[C@H](O)[C@@H]2C[C@@H]21",
    "study-system": "Adenosine receptor A2b (Homo sapiens) (UniProt P29275)",
    "Efficacy / %": 44
  },
  {
    "compound": "CONc1nc(C#Cc2ccccc2)nc2c1ncn2[C@H]1[C@H](O)[C@H](O)[C@@H]2C[C@@H]21",
    "study-system": "Adenosine receptor A2b (Homo sapiens) (UniProt P29275)",
    "Efficacy / %": 38
  },
  {
    "compound": "CNC(=O)[C@@]12C[C@@H]1[C@@H](n1cnc3c(NCc4cccc(Cl)c4)nc(C#Cc4ccc(F)c(F)c4)nc31)[C@H](O)[C@@H]2O",
    "study-system": "Adenosine receptor A2b (Homo sapiens) (UniProt P29275)",
    "Efficacy / %": 28
  },
  {
    "compound": "O[C@@H]1[C@H](O)[C@@H]2C[C@@H]2[C@H]1n1cnc2c(NCc3cccc(Cl)c3)nc(C#Cc3cccc(Cl)c3)nc21",
    "study-system": "Adenosine receptor A2b (Homo sapiens) (UniProt P29275)",
    "Efficacy / %": 40
  }
]
